system: T1, human EpCAM expressed on cells (CHO, Colo205, 293) (human, UniProt P16422 24-314)
T1 construct: whole, on cells; also called CHO cells expressing human EpCAM; Colo205 cells expressing human EpCAM
T1 sequence (looked up): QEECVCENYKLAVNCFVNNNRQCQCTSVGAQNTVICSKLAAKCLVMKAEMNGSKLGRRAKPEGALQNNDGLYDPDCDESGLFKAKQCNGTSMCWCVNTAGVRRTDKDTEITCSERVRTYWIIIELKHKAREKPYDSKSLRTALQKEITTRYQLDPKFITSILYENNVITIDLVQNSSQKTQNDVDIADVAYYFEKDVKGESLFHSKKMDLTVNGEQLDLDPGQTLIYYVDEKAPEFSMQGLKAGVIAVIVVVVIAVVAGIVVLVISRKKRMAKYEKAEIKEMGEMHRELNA
test protocol: FACS on 293 cells expressing human EpCAM, pH 7.4
property: EC50 (µg/mL)
Give the number; µg/mL is assumed, so skip it.

BAP-105.4-01-02 (antibody, V domains shown, Humanized) VH: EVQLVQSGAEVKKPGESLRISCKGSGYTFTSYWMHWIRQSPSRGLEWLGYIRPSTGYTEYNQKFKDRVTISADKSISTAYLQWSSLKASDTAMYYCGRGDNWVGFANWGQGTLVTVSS VL: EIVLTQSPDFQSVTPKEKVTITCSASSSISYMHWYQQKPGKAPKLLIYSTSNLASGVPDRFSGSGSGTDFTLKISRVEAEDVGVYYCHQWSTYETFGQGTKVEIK | 0.174

QUERY: Determine its reported EC50: BAP-105.4-02-01 (antibody, V domains shown, Humanized) VH: EVQLVQSGAEVKKPGATVKISCKVSGYTFTSYWMHWVRQAPGQGLEWMGYIRPSTGYTEYNQKFKDRFTISRDNSKNTLYLQMNSLRAEDTAVYYCGRGDNWVGFANWGQGTLVTVSS VL: EIVMTQSPATLSVSPGERATLSCSASSSISYMHWYQQKPGKAPKLLIYSTSNLASGVPSRFSGSGSGTEFTLTISSLQPDDFATYYCHQWSTYETFGQGTKVEIK
RESULT: 0.238

QUERY: Determine its reported EC50: BAP-105.4-03-02 (antibody, V domains shown, Humanized) VH: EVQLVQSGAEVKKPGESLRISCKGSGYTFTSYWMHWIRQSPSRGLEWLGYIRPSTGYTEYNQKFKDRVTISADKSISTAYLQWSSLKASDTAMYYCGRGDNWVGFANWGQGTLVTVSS VL: EIVMTQSPATLSVSPGERATLSCSASSSISYMHWYQQKPGKAPKLLIYSTSNLASGIPPRFSGSGYGTDFTLTINNIESEDAAYYFCHQWSTYETFGQGTKVEIK
RESULT: 0.159

QUERY: Determine its reported EC50: BAP-105-01-01 (antibody, V domains shown, Non-conditionally active control; also called template antibody (WT)) VH: QVQLQQSGAELAKPGASVKVSCKASGYTFTSYWMHWVKQRPGQGLEWIGYIRPSTGYTEYNQKFKDKATLTADKSSSTAYMQLSSLTFEDSAVYYCGRGDNWVGFANWGQGTLVTVSA VL: QIVLTQSPAIMSASLGEEIALTCSASSSISYMHWYQQKSGTSPKLLIYSTSNLASGVPSRFSGSGSGTFYSLTISSVEAEDAADYFCHQWSTYHTFGSGTKLEIK
RESULT: 0.125
